Exercise: for every item that follows, state its recorded Plant response rating, Rape.
# Test system: rape
# Assay details: Test B pre/postemergence rape
# Assay type: in vivo, Brassica napus
# Measurement parameters: Rate 250 g/ha, Postemergence; scale of 0 to 10 where 0 is no effect and 10 is complete control

Query (compound): "CC(Cl)=CCn1c(=O)on(C(=O)N(c2ccccc2)C(C)C)c1=O" ; field requested: Plant response rating, Rape 3

Query (compound): "CC(C)=CCn1c(=O)on(C(=O)N(c2ccc(F)cc2)C(C)C)c1=O" ; field requested: Plant response rating, Rape 3

Query (compound): CC(C)C(C)n1c(=O)on(C(=O)N(c2ccc(F)cc2)C(C)C)c1=O (stereo not shown) ; field requested: Plant response rating, Rape 1

Query (compound): "CCOC(=O)C=C(Cn1c(=O)on(C(=O)N(c2ccc(F)cc2F)C(C)C)c1=O)OCC" ; field requested: Plant response rating, Rape 0

* * *

# Test system: rape
# Assay details: Test B pre/postemergence rape
# Assay type: in vivo, Brassica napus
# Measurement parameters: Postemergence, Rate 62 g/ha; scale 0 to 10, 0 is no effect, 10 is complete control
Exercise: for every item that follows, state its recorded Plant response rating, Rape.
Respond using a number only.

Query (compound): CCOC(CC)n1c(=O)on(C(=O)N(c2ccc(Cl)cc2)C(C)C)c1=O (centres unmarked) ; field requested: Plant response rating, Rape 0

Query (compound): "CC(C)N(C(=O)n1oc(=O)n(CC2=NOCCC2)c1=O)c1ccc(F)cc1" ; field requested: Plant response rating, Rape 0

Query (compound): "CC(C)N(C(=O)n1oc(=O)n(C(CCl)CCl)c1=O)c1ccc(F)cc1" ; field requested: Plant response rating, Rape 0

Query (compound): CC(C)N(C(=O)n1oc(=O)n(CC2CCCCO2)c1=O)c1ccc(F)cc1 (centres unmarked) ; field requested: Plant response rating, Rape 0

Query (compound): C#CC(C)n1c(=O)on(C(=O)N(c2ccc(F)cc2)C(C)C)c1=O (centres unmarked) ; field requested: Plant response rating, Rape 0

* * *

# Tested on: sugar beet
# Assay details: Test B pre/postemergence sugar beet
# Format: in vivo, Beta vulgaris
# Measurement parameters: Preemergence, Rate 125 g/ha
Measurement kind: Sugarbeets plant response rating (0 to 10 scale)
Respond using a number only.

Query (compound): CC(C)N(C(=O)n1oc(=O)n(C(C)CCl)c1=O)c1ccc(F)cc1 (stereo not drawn) [Compound 367] ; field requested: Sugarbeets plant response rating (0 to 10 scale) 4

Query (compound): CC(C)N(C(=O)n1oc(=O)n(C2CC3CCC2C3)c1=O)c1ccc(F)cc1F (stereo not drawn) [Compound 326] ; field requested: Sugarbeets plant response rating (0 to 10 scale) 0

Query (compound): CC(C)N(C(=O)n1oc(=O)n(-c2ccc3ccccc3c2)c1=O)c1ccc(F)cc1F [Compound 335] ; field requested: Sugarbeets plant response rating (0 to 10 scale) 0

Query (compound): CC(C)N(C(=O)n1oc(=O)n(C2CCC2)c1=O)c1ccc(Cl)cc1 [Compound 349] ; field requested: Sugarbeets plant response rating (0 to 10 scale) 2

Query (compound): CC(C)N(C(=O)n1oc(=O)n(C2CCC2)c1=O)c1ccccc1 [Compound 348] ; field requested: Sugarbeets plant response rating (0 to 10 scale) 0

Query (compound): Cc1cccc(C)c1-n1c(=O)on(C(=O)N(c2ccc(Cl)cc2Cl)C2CCC2)c1=O [Compound 318] ; field requested: Sugarbeets plant response rating (0 to 10 scale) 0
